Assay: The drug is tested on Ruminococcus lactaris strain: ATCC29176 for biotransformation. The drug concentrations were measured before and after a 12-h incubation by liquid-chromatography-coupled mass spectrometry (LC–MS)
Conditions: 2 µM
Metric: Bacterial Biotransformation

>  <Molecule>
CC(=O)O[C@]1(C(C)=O)CC[C@H]2[C@@H]3C=C(C)C4=CC(=O)CC[C@]4(C)[C@H]3CC[C@@]21C [MEGESTROL ACETATE]

>  <Measured Result>
Compound NOT metabolized

$$$$
>  <Molecule>
CCN(CC)CC#CCOC(=O)C(O)(c1ccccc1)C1CCCCC1.Cl (stereo not drawn) [OXYBUTYNIN CHLORIDE]

>  <Measured Result>
Compound NOT metabolized

$$$$
>  <Molecule>
Cc1cc2c(s1)Nc1ccccc1N=C2N1CCN(C)CC1

>  <Measured Result>
Compound NOT metabolized

$$$$
>  <Molecule>
CCCc1nc(C(C)(C)O)c(C(=O)OCc2oc(=O)oc2C)n1Cc1ccc(-c2ccccc2-c2nnn[nH]2)cc1

>  <Measured Result>
Compound metabolized

$$$$
>  <Molecule>
CCCCc1nc(Cl)c(CO)n1Cc1ccc(-c2ccccc2-c2nn[nH]n2)cc1

>  <Measured Result>
Compound NOT metabolized

$$$$
>  <Molecule>
CCCCCNC(=N)N/N=C/c1c[nH]c2ccc(OC)cc12.O=C(O)/C=C\C(=O)O [TEGASEROD MALEATE]

>  <Measured Result>
Compound NOT metabolized

$$$$
>  <Molecule>
CN(C(=O)CN(CCO)CC(=O)N(C)C(C)(C)Cc1ccccc1)C(C)(C)Cc1ccccc1

>  <Measured Result>
Compound NOT metabolized

$$$$
>  <Molecule>
CC(=O)Nc1ccc(OC(C)=O)cc1 [DIACETAMATE]

>  <Measured Result>
Compound metabolized

$$$$

* * *

Conditions: victivallis vadensis, 12 h, 2 µM
Description: The drug is tested on Victivallis vadensis strain: ATCC BAA-548 for biotransformation. The drug concentrations were measured before and after a 12-h incubation by liquid-chromatography-coupled mass spectrometry (LC–MS)
Metric: Bacterial Biotransformation

>  <Compound>
C[C@@H]1C[C@H]2[C@@H]3CCC4=CC(=O)C=C[C@]4(C)[C@@]3(F)[C@@H](O)C[C@]2(C)[C@@]1(O)C(=O)CO [DEXAMETHASONE]

>  <Measured Result>
Compound NOT metabolized

$$$$
>  <Compound>
CCCN1C[C@H](CSC)C[C@@H]2c3cccc4[nH]cc(c34)C[C@H]21.CS(=O)(=O)O [PERGOLIDE MESYLATE]

>  <Measured Result>
Compound NOT metabolized

$$$$
>  <Compound>
OCCN1CCN(CCCN2c3ccccc3Sc3ccc(C(F)(F)F)cc32)CC1 [FLUPHENAZINE]

>  <Measured Result>
Compound NOT metabolized

$$$$

* * *

Assay: The drug is tested on Eggerthella lenta strain: ATCC25559 for biotransformation. The drug concentrations were measured before and after a 12-h incubation by liquid-chromatography-coupled mass spectrometry (LC–MS)
Details: 2 µM

>  <Compound>
C[C@@H](c1ncncc1F)[C@](O)(Cn1cncn1)c1ccc(F)cc1F

>  <Bacterial Biotransformation>
Compound NOT metabolized

$$$$
>  <Compound>
CS(=O)(=O)O.OC(CCN1CCCCC1)(c1ccccc1)c1ccccc1 [PRIDINOL METHANESULFONATE]

>  <Bacterial Biotransformation>
Compound NOT metabolized

$$$$
>  <Compound>
CN1CCN(CC/C=C2/c3ccccc3Sc3ccc(S(=O)(=O)N(C)C)cc32)CC1

>  <Bacterial Biotransformation>
Compound NOT metabolized

$$$$
>  <Compound>
C=CCN1CC[C@]23c4c5ccc(O)c4O[C@H]2C(=O)CC[C@@]3(O)[C@H]1C5

>  <Bacterial Biotransformation>
Compound metabolized

$$$$
>  <Compound>
C#C[C@]1(OC(C)=O)CC[C@H]2[C@@H]3CCC4=C/C(=N/O)CC[C@@H]4[C@H]3CC[C@@]21CC [NORGESTIMATE]

>  <Bacterial Biotransformation>
Compound metabolized

$$$$
>  <Compound>
O=P1(N(CCCl)CCCl)NCCCO1 (stereo not given) [CYCLOPHOSPHAMIDE ANHYDROUS]

>  <Bacterial Biotransformation>
Compound NOT metabolized

$$$$
>  <Compound>
CCN1CCCC1CNC(=O)c1cc(S(=O)(=O)CC)c(N)cc1OC (stereo not given) [AMISULPRIDE]

>  <Bacterial Biotransformation>
Compound NOT metabolized

$$$$
>  <Compound>
CN1C(=O)CCS(=O)(=O)C1c1ccc(Cl)cc1 (stereo not given)

>  <Bacterial Biotransformation>
Compound NOT metabolized

$$$$
>  <Compound>
COC(=O)[C@H]1[C@H]2C[C@@H]3c4[nH]c5cc(OC)ccc5c4CCN3C[C@H]2C[C@@H](OC(=O)c2cc(OC)c(OC)c(OC)c2)[C@@H]1OC

>  <Bacterial Biotransformation>
Compound NOT metabolized

$$$$
>  <Compound>
CCCCC(=O)O[C@]1(C(=O)CO)[C@@H](C)C[C@H]2[C@@H]3CCC4=CC(=O)C=C[C@]4(C)[C@@]3(F)[C@@H](O)C[C@@]21C [BETAMETHASONE VALERATE]

>  <Bacterial Biotransformation>
Compound metabolized

$$$$
>  <Compound>
C=CC[C@@H]1/C=C(\C)C[C@H](C)C[C@H](OC)[C@H]2O[C@@](O)(C(=O)C(=O)N3CCCC[C@H]3C(=O)O[C@H](/C(C)=C/[C@@H]3CC[C@@H](O)[C@H](OC)C3)[C@H](C)[C@@H](O)CC1=O)[C@H](C)C[C@@H]2OC.O

>  <Bacterial Biotransformation>
Compound metabolized

$$$$
>  <Compound>
CN1C[C@H](C(=O)N[C@]2(C)O[C@@]3(O)[C@@H]4CCCN4C(=O)[C@H](Cc4ccccc4)N3C2=O)C=C2c3cccc4[nH]cc(c34)C[C@H]21.CN1C[C@H](C(=O)N[C@]2(C)O[C@@]3(O)[C@@H]4CCCN4C(=O)[C@H](Cc4ccccc4)N3C2=O)C=C2c3cccc4[nH]cc(c34)C[C@H]21.O=C(O)C(O)C(O)C(=O)O [ERGOTAMINE TARTRATE]

>  <Bacterial Biotransformation>
Compound NOT metabolized

$$$$
>  <Compound>
NC(=O)N1c2ccccc2CC(=O)c2ccccc21 [OXCARBAZEPINE]

>  <Bacterial Biotransformation>
Compound metabolized

$$$$
>  <Compound>
CCN(CC)C(=O)/C(C#N)=C/c1cc(O)c(O)c([N+](=O)[O-])c1

>  <Bacterial Biotransformation>
Compound metabolized

$$$$
>  <Compound>
c1ccc2[nH]c(-c3cscn3)nc2c1

>  <Bacterial Biotransformation>
Compound NOT metabolized

$$$$
>  <Compound>
CN(C)CCc1c[nH]c2ccc(Cn3cncn3)cc12.O=C(O)c1ccccc1 [RIZATRIPTAN BENZOATE]

>  <Bacterial Biotransformation>
Compound NOT metabolized

$$$$
>  <Compound>
CCc1nn(CCCN2CCN(c3cccc(Cl)c3)CC2)c(=O)n1CCOc1ccccc1

>  <Bacterial Biotransformation>
Compound NOT metabolized

$$$$
>  <Compound>
COc1ccccc1OCC(O)COC(N)=O (stereo not given)

>  <Bacterial Biotransformation>
Compound NOT metabolized

$$$$
>  <Compound>
CCN(CC)CCOC(=O)C1(C2CCCCC2)CCCCC1

>  <Bacterial Biotransformation>
Compound metabolized

$$$$
>  <Compound>
CC[C@@H](CO)NC(=O)[C@@H]1C=C2c3cccc4c3c(cn4C)C[C@H]2N(C)C1.O=C(O)/C=C\C(=O)O [METHYSERGIDE MALEATE]

>  <Bacterial Biotransformation>
Compound metabolized

$$$$
>  <Compound>
CC(=O)Oc1ccc(C(c2ccc(OC(C)=O)cc2)c2ccccn2)cc1

>  <Bacterial Biotransformation>
Compound metabolized

$$$$
>  <Compound>
CNCCC(Oc1ccc(C(F)(F)F)cc1)c1ccccc1 (stereo not given)

>  <Bacterial Biotransformation>
Compound NOT metabolized

$$$$
>  <Compound>
CC(CCc1ccccc1)NCC(O)c1ccc(O)c(C(N)=O)c1 (stereo not given)

>  <Bacterial Biotransformation>
Compound NOT metabolized

$$$$
>  <Compound>
CCc1oc2ccccc2c1C(=O)c1cc(Br)c(O)c(Br)c1

>  <Bacterial Biotransformation>
Compound NOT metabolized

$$$$
>  <Compound>
CNCC[C@H](Oc1cccc2ccccc12)c1cccs1

>  <Bacterial Biotransformation>
Compound NOT metabolized

$$$$
>  <Compound>
O=C(NCc1ccccc1)OCCO [BURAMATE]

>  <Bacterial Biotransformation>
Compound NOT metabolized

$$$$
>  <Compound>
CCCC(=O)Nc1ccc(OCC(O)CNC(C)C)c(C(C)=O)c1 (stereo not given)

>  <Bacterial Biotransformation>
Compound NOT metabolized

$$$$
>  <Compound>
CCCN1C[C@H](CSC)C[C@@H]2c3cccc4[nH]cc(c34)C[C@H]21.CS(=O)(=O)O [PERGOLIDE MESYLATE]

>  <Bacterial Biotransformation>
Compound NOT metabolized

$$$$
>  <Compound>
O=C(O[C@H]1C[C@H]2CC[C@@H](C1)[N+]21CCCC1)C(O)(c1ccccc1)c1ccccc1.[Cl-] [TROSPIUM CHLORIDE]

>  <Bacterial Biotransformation>
Compound NOT metabolized

$$$$
>  <Compound>
CCC(COC(=O)c1cc(OC)c(OC)c(OC)c1)(c1ccccc1)N(C)C.O=C(O)/C=C\C(=O)O (stereo not given)

>  <Bacterial Biotransformation>
Compound metabolized

$$$$
